- Tested on: B6C3F1 mice, B16 melanoma ip, median survival T/C
- method_notes: NCI In Vivo Anticancer Drug Screen. Data for tumor model B16 Melanoma (intraperitoneal) in B6C3F1 mice
- reported_conditions: endpoint: median survival time; dose: 200.0 mg/kg/injection; schedule: Q01DX009 (ip); vehicle: saline with Tween-80; higher = longer survival
Inconclusive results and toxic doses are left out.
endpoint_name: T/C

These recorded examples may help you get a feel for the data.
molecule | endpoint_name | result
CN(C)/N=N/c1nc[nH]c1C(N)=O | T/C | 93 % of control
NC(=O)c1cc(Cl)nc2nc(Cl)nc(N)c12 | T/C | 98 % of control
O=C/C=C/c1cccc([N+](=O)[O-])c1 | T/C | 124 % of control
Cc1ccc2c(c1)n([O-])c1cc(Cl)ccc1[n+]2=O | T/C | 111 % of control

Value sought for every listed molecule: T/C.
1. COc1ccc(/C(C#N)=C2\OC(=O)c3ccccc32)cc1OC
2. BrC1CC(Br)c2c1c1c(c3c2C(Br)CC3Br)C(Br)CC1Br (configuration not stated)

Reply text:
["88 % of control", "123 % of control"]
